The values you see were collected from patent US10526347B2.

System: Wnt activity (SW480 colon carcinoma cells stably expressing the Sp5-Luc reporter gene)
Assay: Sp5-Luc reporter gene screening assay for Wnt activity
Type: cell-based
Conditions: Homo sapiens
Endpoint name: IC50

Compound	Endpoint name	Result
Fc1cccc(-c2ccnc3[nH]c(-c4n[nH]c5ncc(C6CCNCC6)cc45)nc23)c1 [Compound 909]	IC50	> 10000 nM
CCNCc1cncc(-c2cnc3[nH]nc(-c4nc5c(-c6ccoc6)ccnc5[nH]4)c3c2)c1 [Compound 264]	IC50	> 10000 nM
Fc1cccc(-c2ccnc3[nH]c(-c4n[nH]c5ncc(-c6cncc(OC7CCCCC7)c6)cc45)nc23)c1 [Compound 915]	IC50	> 10000 nM
CCCC(=O)Nc1cncc(-c2cnc3[nH]nc(-c4nc5c(-c6ccncc6)ccnc5[nH]4)c3c2)c1 [Compound 102]	IC50	2380 nM
CCCCC(=O)Nc1cncc(-c2cnc3[nH]nc(-c4nc5c(-c6cc(F)cc(NCCN(C)C)c6)ccnc5[nH]4)c3c2)c1 [Compound 432]	IC50	21.7 nM
c1ccc(-c2ccnc3[nH]c(-c4n[nH]c5ncc(-c6cncc(CNCC7CCCC7)c6)cc45)nc23)nc1 [Compound 130]	IC50	633 nM
O=C(Nc1cncc(-c2cnc3[nH]nc(-c4nc5c(-c6ccsc6)ccnc5[nH]4)c3c2)c1)c1ccccc1 [Compound 243]	IC50	33 nM

---

Test system: Wnt activity (SW480 colon carcinoma cells stably expressing the Sp5-Luc reporter gene)
Test: Sp5-Luc reporter gene screening assay for Wnt activity
Type: cell-based
Conditions: Homo sapiens
Endpoint name: log10(IC50) (log10 of the value in nM)

Smiles repr	Recorded number
Cc1cn(-c2ccnc3[nH]c(-c4n[nH]c5ncc(-c6cncc(NC(=O)CC(C)C)c6)cc45)nc23)cn1	0.92
CC(C)(C)CC(=O)Nc1cncc(-c2cnc3[nH]nc(-c4nc5cccnc5[nH]4)c3c2)c1	2.28
Cc1ccncc1-c1cnc2[nH]nc(-c3nc4c(-c5cc(F)cc(CNS(C)(=O)=O)c5)ccnc4[nH]3)c2c1	1.31
O=C(Nc1cncc(-c2cnc3[nH]nc(-c4nc5c(-c6ccc(F)cc6)ccnc5[nH]4)c3c2)c1)C1CCC1	1.06
CN(C)Cc1cncc(-c2cnc3[nH]nc(-c4nc5c(N6CCCCC6)ccnc5[nH]4)c3c2)c1	3.45
O=C(Nc1cncc(-c2cnc3[nH]nc(-c4nc5c(-c6ccccc6F)ccnc5[nH]4)c3c2)c1)C1CCCC1	1.62
Fc1cccc(-c2ccnc3[nH]c(-c4n[nH]c5ncc(-c6cn[nH]c6)cc45)nc23)c1	1.48
CCC(=O)Nc1cncc(-c2cnc3[nH]nc(-c4nc5c(N6CCCCC6)ccnc5[nH]4)c3c2)c1	1.56
CN(C)c1cncc(-c2cnc3[nH]nc(-c4nc5c(-c6cccc(F)c6)ccnc5[nH]4)c3c2)c1	2.24
O=C(Nc1cncc(-c2cnc3[nH]nc(-c4nc5c(-c6cccs6)ccnc5[nH]4)c3c2)c1)C1CC1	0.89
CC(C)CC(=O)Nc1cncc(-c2cnc3[nH]nc(-c4nc5c(-c6ccc(F)s6)ccnc5[nH]4)c3c2)c1	1.43
COc1cncc(-c2cnc3[nH]nc(-c4nc5c(-c6cccc(F)c6)ccnc5[nH]4)c3c2)c1	3.02
FC1(F)CCN(Cc2cncc(-c3cnc4[nH]nc(-c5nc6c(N7CCCCC7)ccnc6[nH]5)c4c3)c2)C1	3.62
CCC(=O)Nc1cncc(-c2cnc3[nH]nc(-c4nc5c(-c6cccs6)ccnc5[nH]4)c3c2)c1	0.52
Fc1ccc(-c2ccnc3[nH]c(-c4n[nH]c5ncc(-c6cncc(CN7CCCC7)c6)cc45)nc23)cc1	2.16
CCCCC(=O)Nc1cncc(-c2cnc3[nH]nc(-c4nc5c(-c6ccoc6)ccnc5[nH]4)c3c2)c1	0.91
c1cncc(-c2cnc3[nH]nc(-c4nc5cccnc5[nH]4)c3c2)c1	2.33
Cn1cc(-c2cnc3[nH]nc(-c4nc5c(-c6cccc(F)c6)ccnc5[nH]4)c3c2)cn1	2.34

---

Tested on: Wnt activity (SW480 colon carcinoma cells stably expressing the Sp5-Luc reporter gene)
Experiment: Sp5-Luc reporter gene screening assay for Wnt activity
Type: cell-based
Conditions: Homo sapiens
Procedure: The screening assay for Wnt activity is described as follows. […] SW480 colon carcinoma cells were transduced with a lentiviral vector expressing luciferase with a human Sp5 promoter consisting of a sequence of eight TCF/LEF binding sites. […] Following incubation, the growth medium was removed and 50 μl of BrightGlo luminescence reagent (Promega) was added to each well of the 96-well assay plates. […]
Listed below: IC50 values for each entry.

Smiles repr	Scale unit	Comparative sign	IC50
CC(C)Nc1cncc(-c2cnc3[nH]nc(-c4nc5c(-c6cc(F)cc(NCCN(C)C)c6)ccnc5[nH]4)c3c2)c1	nM	=	129
CC(C)CC(=O)Nc1cncc(-c2cnc3[nH]nc(-c4nc5c(-c6cc(O)cc(F)c6)ccnc5[nH]4)c3c2)c1	nM	=	395
Fc1cccc(-c2ccnc3[nH]c(-c4n[nH]c5ncc(-c6cncc(OCCN7CCCC7)c6)cc45)nc23)c1	nM	>	10000
Fc1cccc(-c2ccnc3[nH]c(-c4n[nH]c5ncc(-c6cncc(OC7CCNCC7)c6)cc45)nc23)c1	nM	>	10000
CN1CCN(c2ccnc3[nH]c(-c4n[nH]c5ncc(-c6cncc(CN7CCCCC7)c6)cc45)nc23)CC1	nM	>	10000
COc1cc(F)cc(-c2ccnc3[nH]c(-c4n[nH]c5ncc(-c6cncc(NC(=O)CC(C)C)c6)cc45)nc23)c1	nM	=	125
Cc1cn(-c2ccnc3[nH]c(-c4n[nH]c5ncc(-c6cncc(NC(=O)C(C)(C)C)c6)cc45)nc23)cn1	nM	>	10000
CN(C)CC(=O)Nc1cncc(-c2cnc3[nH]nc(-c4nc5c(-c6cccc(F)c6)ccnc5[nH]4)c3c2)c1	nM	=	3990
Oc1cncc(-c2cnc3[nH]nc(-c4nc5c(-c6cccc(F)c6)ccnc5[nH]4)c3c2)c1	nM	=	27
NC1CN(c2cncc(-c3cnc4[nH]nc(-c5nc6c(-c7cccc(F)c7)ccnc6[nH]5)c4c3)n2)C1	nM	=	1020
CN1CCN(c2ccnc3[nH]c(-c4n[nH]c5ncc(-c6cncc(N)c6)cc45)nc23)CC1	nM	>	10000
O=C(Nc1cncc(-c2cnc3[nH]nc(-c4nc5cccnc5[nH]4)c3c2)c1)C1CCCCC1	nM	>	10000
CN1CCN(c2ccnc3[nH]c(-c4n[nH]c5ncc(-c6cncc(NC(=O)C7CCCC7)c6)cc45)nc23)CC1	nM	=	312
Nc1cncc(-c2cnc3[nH]nc(-c4nc5c(-c6ccccc6F)ccnc5[nH]4)c3c2)c1	nM	=	3.7

---

Test system: primary human fibroblasts derived from IPF patients (LL29 cells)
Experiment: Inhibition of the fibrotic process in TGF-β1 treated IPF patient fibroblasts (αSMA staining)
Type: cell-based
Details: Fibroblast, 96 h, LL29 cells treated with TGF-β1 (20 ng/mL), 4 days, read-out: Inhibition of fibrosis EC50
Excerpt: The above synthesized compounds were screened using primary human fibroblasts (derived from IPF patients) treated with TGF-β1 to determine their ability to inhibit the fibrotic process. […]
List of EC50 values.
Endpoint name: EC50 (nM)

Smiles repr	Endpoint name	Scale unit	Comparative sign	Recorded number
CCNCc1cncc(-c2cnc3[nH]nc(-c4nc5c(-c6ccccn6)ccnc5[nH]4)c3c2)c1	EC50	nM	≥	9990
CC(C)Nc1cncc(-c2cnc3[nH]nc(-c4nc5c(-c6ccoc6)ccnc5[nH]4)c3c2)c1	EC50	nM	=	786
CC(C)(C)C(=O)Nc1cncc(-c2cnc3[nH]nc(-c4nc5c(-c6ccc(F)cc6)ccnc5[nH]4)c3c2)c1	EC50	nM	=	26
O=C(Nc1cncc(-c2cnc3[nH]nc(-c4nc5c(-c6ccsc6)ccnc5[nH]4)c3c2)c1)c1ccccc1	EC50	nM	=	113
Fc1cccc(-c2ccnc3[nH]c(-c4n[nH]c5ncc(-c6cn[nH]c6)cc45)nc23)c1	EC50	nM	=	29
c1ccc(-c2ccnc3[nH]c(-c4n[nH]c5ncc(-c6cncc(CNCC7CCCC7)c6)cc45)nc23)nc1	EC50	nM	≤	9
O=C(Nc1cncc(-c2cnc3[nH]nc(-c4nc5c(-c6cccs6)ccnc5[nH]4)c3c2)c1)C1CC1	EC50	nM	≥	9990

---

System: primary human fibroblasts derived from IPF patients (LL29 cells)
Experiment: Inhibition of the fibrotic process in TGF-β1 treated IPF patient fibroblasts (αSMA staining)
Format: cell-based
Settings: Fibroblast, 96 h, LL29 cells treated with TGF-β1 (20 ng/mL), 4 days, read-out: Inhibition of fibrosis EC50
EC50: recorded values
Endpoint name: EC50

Compound	Result
CCC(=O)Nc1cncc(-c2cnc3[nH]nc(-c4nc5c(-c6cccs6)ccnc5[nH]4)c3c2)c1 [Compound 285]	≤ 9 nM
CN(C)Cc1cncc(-c2cnc3[nH]nc(-c4nc5c(-c6cccs6)ccnc5[nH]4)c3c2)c1 [Compound 297]	≥ 9990 nM
COc1cncc(-c2cnc3[nH]nc(-c4nc5c(-c6cccc(F)c6)ccnc5[nH]4)c3c2)c1 [Compound 920]	≤ 9 nM
CN(C)CCOc1cncc(-c2cnc3[nH]nc(-c4nc5c(-c6cccc(F)c6)ccnc5[nH]4)c3c2)c1 [Compound 919]	≤ 9 nM
Oc1cncc(-c2cnc3[nH]nc(-c4nc5c(-c6cccc(F)c6)ccnc5[nH]4)c3c2)c1 [Compound 921]	164 nM
Cc1ncc(-c2cnc3[nH]nc(-c4nc5c(-c6cccc(F)c6)ccnc5[nH]4)c3c2)n1C [Compound 913]	216 nM
CN(C)CC(=O)Nc1cncc(-c2cnc3[nH]nc(-c4nc5c(-c6cccc(F)c6)ccnc5[nH]4)c3c2)c1 [Compound 1409]	≤ 9 nM
O=C(Nc1cncc(-c2cnc3[nH]nc(-c4nc5c(-c6ccc(F)cc6)ccnc5[nH]4)c3c2)c1)C1CCC1 [Compound 38]	118 nM
CC(C)Nc1cncc(-c2cnc3[nH]nc(-c4nc5c(-c6cc(F)cc(NCCN(C)C)c6)ccnc5[nH]4)c3c2)c1 [Compound 426]	287 nM
Fc1cccc(-c2ccnc3[nH]c(-c4n[nH]c5ncc(C6=CCNCC6)cc45)nc23)c1 [Compound 910]	≥ 9990 nM
Cc1ccncc1-c1cnc2[nH]nc(-c3nc4c(-c5ccsc5)ccnc4[nH]3)c2c1 [Compound 237]	282 nM
CC(=O)c1ccc(-c2ccnc3[nH]c(-c4n[nH]c5ncc(-c6cncc(NC(=O)C7CCCCC7)c6)cc45)nc23)s1 [Compound 384]	≥ 9990 nM
CS(=O)(=O)NCc1cc(F)cc(-c2ccnc3[nH]c(-c4n[nH]c5ncc(-c6cncnc6)cc45)nc23)c1 [Compound 414]	≥ 9990 nM
